- test.method.notes: yeast display, Sf9 membrane polyspecificity reagent, FACS + sequencing; frameworks hold sequencing errors
measurement.name: polyreactivity (PSR sort gate)

The following sequences have reported results that may help.
Q: Provide measured polyreactivity (PSR sort gate) value, entry: QVQLVESGGGLVQAGGSLRLSCAASGSTFVDNAMGWYRQAPGKERELVADITWSGGSTYYADSVKGRFTISRDNAKNTVYLQMNSLKPEDTAVYYCAKVPKSRGYVGGMDYWGQGTQVTVSS
Ans: low polyreactivity

Q: Please give the documented polyreactivity (PSR sort gate) of QVQLVESGGGLVQAGGSLRLSCAASGFILPWYVMGWYRQAPGKERELVAAISGTGGSTYYADSVKGRFTISRDNAKNTVYLQMNSLKPEDTAVYYCAAGAFYAGYYWEFYYWGQGTQVTVSS
Ans: high polyreactivity

Q: Return the recorded polyreactivity (PSR sort gate) value; entry: KVQLVESGGGLVQAGGSLRLSCPASGITFYRYVMGWYRQAPGTERELVAAISSGGRTYYADSVKGRFTISRDNAKNTVYLQMNSLKPEDNAVYYCNRAAFQTRYESWGQGTQVTVSS
Ans: high polyreactivity

Q: Please report polyreactivity (PSR sort gate) for the following sequence: QVQLVESGGGLVQAGGSLRLSFAASGRIFPHNAMGWYRQAPGKERELVAAISSNGGSTYYADSVKGRFTISRDNAKNTVYLQMNSLKPEDTAVYYCAKYRYFAGDGDYWGQGTQVTVSS
Ans: low polyreactivity

Q: Look up and report measured polyreactivity (PSR sort gate) for this entry: QVQLVESGGGLVQAGGSLRLSCAASGLTFRPYAMGWYRPAPGKERELVAAISTTGGSTYYADSVKGRFTISRDNAKNTVYLQMNSLKPEDTAVYYCAAPTSQRRVLSYRPYGYWGQGTQVTVSS
Ans: high polyreactivity

Turning now to a further record.
Q: Entry QVQLVESGGGLVQAGGRLRLSCAASGRTFSNYAKGWYRQAPGKEREFVAGIRYNGGSTYYADSVKGRFTISRDNAKNTVYLQMKSLKPEDTAVYYCAARYSRSMDYWGQGTQVTVSS needs its polyreactivity (PSR sort gate) filled in; supply it.
Ans: high polyreactivity

###

- test.method.notes: yeast display, Sf9 membrane polyspecificity reagent, FACS + sequencing; frameworks hold sequencing errors
measurement.name: polyreactivity (PSR sort gate)

Q: Identify polyreactivity (PSR sort gate) associated with the sequence QVQLVESGGGLVQEGGSLRLSCAASGIIFLENAMGWYRQAPGKERELVAGISSGGNTNYADSVKARFTISRDNAKNTVYLHMNSLKPEDTAVYYCNARCHRAVPGDELGYWGQGTQLTVSS
Ans: low polyreactivity

Q: Supply recorded polyreactivity (PSR sort gate) for QVQLVESGGGLVQAGGSLRLSCAASGRIFTRNAMGWYRQAPGKERELVAAIRWSGDSTYYADSVKGRFTISRDNAKNTVYLQMNSLKPEDTAVYYCAAYRQRSHRVGTKGHRVGYWGQVTQVTVSS here.
Ans: high polyreactivity

Q: Give recorded polyreactivity (PSR sort gate). QVQLVESGGGLVQAGGSLRLSCAASGRIFGHYAMGWYRQAPGKERELVASISSNGGSTYYADSVKGRFTISRDNAKNTVYLQINSLKPEDTAVYYCAARVSTVFKRYYYWGQGTQVTVSS
Ans: high polyreactivity

Q: Give reported polyreactivity (PSR sort gate) value for QVQLVESGGGLVQAGGSLRLSCAASGSIFPHYAMGWYRQAPGKERELVATIRSRSGSTYYADSVKGRFTISRDNAKNTVYLQMNSLKPEDTAVYYCAKDNSLFQRDYWGQGTQVTVSS
Ans: low polyreactivity

Others:
Q: State its polyreactivity (PSR sort gate) for this sequence: QVLVVESGGCLVQAVGSLRLSCAAYGITCSRNALGWYRLAAGKERELVATITSGGSTNYADSVKGRFTISRDNAKNTVYLQMMSLKPEDPAVYFCNAVWNTFISGRSYDYWGQVTQVTVSS
Ans: low polyreactivity

###

- test.method.notes: yeast display, Sf9 membrane polyspecificity reagent, FACS + sequencing; frameworks hold sequencing errors
measurement.name: polyreactivity (PSR sort gate)

Check out these entries, answers already filled in.
Q: Give polyreactivity (PSR sort gate) for the following sequence: QVQLVESRGCLVQAGGSHRLSCAASGSISDVNPMGWYRQARGNERELFAAMTSRRGGTNYADSVKGRFTISRDYAKNTVYLQMNSLNPEDTAVYYCAVYVSTKASKQGYGPGDYWGQGTQVTVSS
Ans: low polyreactivity

Q: Check the records and state polyreactivity (PSR sort gate) for QVKLVESGGGLVQAGGSLRLSCAASARIFAQYDMGWYRQEPGKEREFVAAISGGGSSKYYADSVKGRFTISRDNAKNTGYLQMNSLKPEDTAVYYCAAYGRYPSWYAPGNEYWGQGTQVTVSS
Ans: low polyreactivity

Q: Supply polyreactivity (PSR sort gate) value. Item: QVQLVESGGGLVQAGGSLRLSCAASGIIFYLYAMGWYIQAPGKERELVAAISWGGGTTYYADSVKGRFTISRDNAKNTVYLQMNSLKPEDTAVYYCAAETEYYSYRFDYWGQGTQVTVSS
Ans: high polyreactivity

Q: Tell me measured polyreactivity (PSR sort gate) for QVQLVESGGGLVQAGGSLRLSCAASGRIFSSNVMGWYRQAPGKERELVAAITVTGGSTYYAYSVKGRFTISRDNAKYTVYLLMNSLNPEDTAVYFCAARVKGRFPYDYWGQGSQVTVSS please.
Ans: low polyreactivity

Q: Specify measured polyreactivity (PSR sort gate) for QVQLVESGGGLVQAGGSLRLTCAASGRTFVNYAMGWYRQAPGKERELVAAISTSGGSTYYADSVKGRFTISRDNAKNTVYLQMNSLKPEDTAVYYCNKVRYLPDNLRQVTFDYWGQGTQVTVSS .
Ans: low polyreactivity

Q: Tell me polyreactivity (PSR sort gate) reported for QVQLVESGGGLVQAGGSLRLSCAASGSTIISYAMGWYRQAPGKERELVAAISSGGGRTSYADSVKGRFTISRDNAKNTVYLQMNSLKPEDTAVYYCNTKQLPYAEGYWGQGTQVTVSS
Ans: low polyreactivity

Others:
Q: Read the entry QVQLVESGGGLVQAGGSLRLSCAASGSIFTRYAMGGYRQAPGKERELVAAITAGGSSPYYADSVKGRFTISRDNAKNTVYLQMNSLKPEDTAVYYCNAVWWHPTDYDYWGQGSQVTVSS and write its reported polyreactivity (PSR sort gate).
Ans: low polyreactivity

Q: Tell me measured polyreactivity (PSR sort gate) for QVQLVESGGGLVQAGGSLRLSCAASGRTFSYYGMGWYRQAPGKERELVAAITNSVGRTYYADSVKGRFTISRDNEKNTVYLHMNSLKPEDTAVYYCKKYGRYYYWGQGTQVTVSS please.
Ans: low polyreactivity

Q: Specify measured polyreactivity (PSR sort gate) for QVQLVESVGGLVQAGGSLRLSCAASGRIFLVYVMGWYRQAPGKERELVAAISASDGSTYYADSVKGRFTISRDNAKNTVYLQMNSLKPEDTAVYYCAEWGYSLDSNSYRELNYWGQGTQVTVSS .
Ans: low polyreactivity

Q: Look up and report measured polyreactivity (PSR sort gate) for this entry: QVQLVESGGGLLQAGGSLRVSCAASGSTLVGNTMGWYRQAPGKESELLAAITGVGSTNYADSVKGRFTISRDNAKNSVYLQMNSLKPEDTAVYSCAAEYSYTYIVSYLYDMDYWGQATQVTVSS
Ans: low polyreactivity

Q: Identify polyreactivity (PSR sort gate) associated with the sequence QVQLVESGGGLVQAGGSLRLSCAASGFTFRRNAMGWYRQAPGKERELVAAITGRGTGTYYADSVKGRFTISRDNAKNTVYLQMNSLKPEDTAVYYCNADPVRYLFTRYDYWGQGTQVTVSS
Ans: high polyreactivity

Q: Return polyreactivity (PSR sort gate) (reported value) for this sequence: QVQLVESGGGLVQAGGSLRFSCAASGIIFYYKTMGLYRQAPGKERELVASITWSGDTTYYAYSVKGRYTISRDNAKNSVYLQMNSLKPEDTAVYYCAAACYWYPSYSSYLGMYYWGQGTKVTVSS
Ans: low polyreactivity

Q: Report polyreactivity (PSR sort gate), nothing else, for this sequence: QVQLVETGGVLVQAGGSLRLSCAASGITFYRYAMGWYRQAPGKERELVATITSGVSTFYADSVKGRFTISRDNAKNTVYLQMKSLKQEDTAVYFCAAESVWNWYYTTAGMDYWGLGTQVTVSS
Ans: high polyreactivity

Q: Using the record for QVQHVESGGGLVQAGGSLRLSCAASGFIFPVNAMGWYRQAPGKERELVAAITYSTGSTYYADSVKGRFTISRDNAKNTVYLQMNSLKPEDTAVYSCAADVPPGEVVTNDYWGQGTQVTVSS , state its measured polyreactivity (PSR sort gate).
Ans: low polyreactivity

Q: Annotate the sequence QVQLVESGGGLVQAGGSLRLSCAASGSIFGAYVMGWYRQAPGKERELVAAISRSGASTYYADSVKGRFTISRDNAKNTVYLQMNSLKPEDTAVYYCAARDRQRVSYCYWGQGTQVTVSS with its measured polyreactivity (PSR sort gate).
Ans: high polyreactivity

Q: Look up polyreactivity (PSR sort gate) of QVQLVESGGGLVQAGGSLRLSWAASGRLFDGYAMGWYRQAPGTERELVATISSSGGATYYADSVKGRFTISRDNAKNTVYLQMNSLKPEDTAVYYCATAGSVSHWYSYFAFWERDYWGQGTQVTVSS and report it.
Ans: low polyreactivity

Q: Assign polyreactivity (PSR sort gate) to the following record: QVQLVESGGGLVQAGGSLRLSCAASGRTFGAYTMRWYRQAPGTERELVAAINRSGGDTYYADSVKGRFTISRDTAKNTVYLQMNSLKPEDNAVYYCNAEPRYGTYDYWGQGTQVTVSS
Ans: low polyreactivity

Q: Look up and state reported polyreactivity (PSR sort gate) for QVQLVESGGGLVQAGGSLRLSCAASGSTLSYNAMGWYRPATGKERELVAAISWSDGGTYYADSVKGRFTISRDNAKNTVYLQMNSLKPEDTAVYYCNAESQWSYYFIYDYWGQGTQVTVSS
Ans: high polyreactivity

Q: Tell me its polyreactivity (PSR sort gate) given QDQLVESGGGLVQAGGSLRLSCAASGFNFDSYAMRWYIQAPGKERELVAAMSWSGSSTYSADSVKGRFTISRDNAKNTGYLQMNSLKPEDTAVYYCAALVYPYWGGSMYYWGQGTQVTVSS as the entry.
Ans: high polyreactivity

Q: Supply recorded polyreactivity (PSR sort gate) for QVQLVESVGGLVQAGGSLRLSCADSGSIFAANAIGWFRQAPGKERELVAAISRSGNTYYADSVKGRFTISRDNAKNTVYLQMNSLKPEDTAVYYCAARRYAYGRTYGYWGQGTQVTVSS here.
Ans: high polyreactivity

Q: // Input: QVQLVESGGGLVQAGGSLRLSCAASGSIFGAYVMGWYRQAPGKERELVAAITRRGGSTYYADSVKGRFTISRDNAKNTVYLQMNSLKPEDTAVYYCAARRGAGDGYWGQGTQVTVSS . Output its polyreactivity (PSR sort gate) only.
Ans: high polyreactivity
